test: Population pharmacokinetic analysis of apixaban; assay type: in vivo, human; conditions: male, human, plasma, oral, CLNR/F (apparent nonrenal clearance), final model; reference VTE treatment subject
VALUE KIND: CL renal (mL/min)
Number in mL/min, nothing else.

### Prompt // CL renal lookup, key: COc1ccc(-n2nc(C(N)=O)c3c2C(=O)N(c2ccc(N4CCCCC4=O)cc2)CC3)cc1
### Response 42

###

experiment: Population pharmacokinetic analysis of apixaban; type: in vivo, human; details: male, human, plasma, oral, CLR/F (apparent renal clearance), final model; reference VTE treatment subject (60 years, non-Asian male, 85 kg, cCrCL 100 mL/min)
VALUE KIND: CL renal

### Prompt // CL renal lookup, key: COc1ccc(-n2nc(C(N)=O)c3c2C(=O)N(c2ccc(N4CCCCC4=O)cc2)CC3)cc1
### Response 30.5 mL/min
